molecular target: WEE1 (Homo sapiens); construct: purchased Thermo Fisher PR7373A; assay: Selectivity versus WEE1 assay (ADP-Glo enzymatic assay); assay type: biochemical; settings: WEE1 15 nM; ADP-Glo; banded values
Sequence (P30291 whole entry): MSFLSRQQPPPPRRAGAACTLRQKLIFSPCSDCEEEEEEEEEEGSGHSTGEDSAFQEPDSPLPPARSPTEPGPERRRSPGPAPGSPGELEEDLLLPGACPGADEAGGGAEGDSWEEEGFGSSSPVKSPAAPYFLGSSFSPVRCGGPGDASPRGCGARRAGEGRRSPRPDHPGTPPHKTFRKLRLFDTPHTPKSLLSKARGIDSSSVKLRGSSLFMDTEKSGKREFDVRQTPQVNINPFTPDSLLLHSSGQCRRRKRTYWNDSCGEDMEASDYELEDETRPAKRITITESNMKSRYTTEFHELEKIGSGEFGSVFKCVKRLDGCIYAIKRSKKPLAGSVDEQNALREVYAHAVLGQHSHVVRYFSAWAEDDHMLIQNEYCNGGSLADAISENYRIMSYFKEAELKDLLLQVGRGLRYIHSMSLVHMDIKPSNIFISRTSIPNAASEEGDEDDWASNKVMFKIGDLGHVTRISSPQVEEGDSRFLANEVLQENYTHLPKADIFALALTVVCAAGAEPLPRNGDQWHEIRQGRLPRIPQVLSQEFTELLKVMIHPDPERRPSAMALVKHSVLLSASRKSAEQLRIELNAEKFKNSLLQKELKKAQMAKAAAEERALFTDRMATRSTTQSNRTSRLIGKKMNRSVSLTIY
Where a name gives a salt, the structure may show the parent alone.
Documented IC50 across a set of compounds

compound	assayed.target	IC50
Cc1ccc(O)c(C)c1NC(=O)c1cnc(Nc2ncccc2Cl)s1	WEE1 (Homo sapiens)	1 to 11 µM

Data point: `Cn1ccc(Nc2ncc(C(=O)Nc3c(F)ccc(O)c3Cl)s2)n1` ; IC50 = > 11 µM

# IC50 (compound: `Cc1ccc(O)c(C)c1NC(=O)c1cnc(Nc2cn(C)nc2C(F)(F)F)s1` ) is > 11 µM

For reference, reported IC50 for `Cc1cn(CC(=O)N(C)CCS(C)(=O)=O)nc1Nc1ncc(C(=O)Nc2c(C)ccc(O)c2C)s1` stands at 1 to 11 µM

The compound Cc1cn(C(CO)C(=O)N2CCCC2C(F)(F)F)nc1Nc1ncc(C(=O)Nc2c(C)ccc(O)c2C)s1 (stereo not drawn) showed IC50 equal to 1 to 11 µM

Lookup result for `Cc1ccc(-c2cnn(C)c2)nc1Nc1ncc(C(=O)Nc2c(C)ccc(O)c2C)s1` ; measured IC50: 1 to 11 µM

// field: IC50; key: Cc1ccc(O)c(C)c1NC(=O)c1cnc(Nc2cccc3c2OCC3)s1 [BAA-530, TFA salt] ; value = > 11 µM

The compound identified as `Cc1ccc(O)c(C)c1NC(=O)c1cnc(Nc2cccc(OC(C)C)n2)s1` registered its IC50 at > 11 µM

In plain terms, `CCc1cn(CCF)nc1Nc1ncc(C(=O)Nc2c(C)ccc(O)c2C)s1` has a documented IC50 of 1 to 11 µM

###

target: WEE1 (Homo sapiens); construct: purchased Thermo Fisher PR7373A; experiment: Selectivity versus WEE1 assay (ADP-Glo enzymatic assay); format: biochemical; conditions: ADP-Glo; 15 nM WEE1, 60 minutes at 26° C.; banded
Entries and their measured IC50 follow.

compound	assayed.target	IC50
Cc1ccc(O)c(C)c1NC(=O)c1cnc(N[C@@H](C)c2ccccc2)s1 [BAA-351]	WEE1 (Homo sapiens)	> 11 µM
Cc1ccc(O)c(C)c1NC(=O)c1cnc(Nc2nccc(-c3ccc(Cl)cc3)n2)s1 [BAA-293]	WEE1 (Homo sapiens)	> 11 µM
Cc1cn(-c2cnc(Cl)cc2Br)nc1Nc1ncc(C(=O)Nc2c(C)ccc(O)c2C)s1 [BAA-378]	WEE1 (Homo sapiens)	1 to 11 µM
Cc1ccc(N)nc1Nc1ncc(C(=O)Nc2c(C)ccc(O)c2C)s1 [BAA-337]	WEE1 (Homo sapiens)	1 to 11 µM
Cc1ccc(O)c(C)c1NC(=O)c1cnc(Nc2ccn(CC(=O)N3CCC[C@H](O)C3)n2)s1 [BAA-163]	WEE1 (Homo sapiens)	> 11 µM
Cc1ccc(O)c(C)c1NC(=O)c1cnc(Nc2cc(C)n(CC(=O)O)n2)s1 [BAA-124]	WEE1 (Homo sapiens)	> 11 µM
Cc1ccc(O)c(C)c1NC(=O)c1cnc(NCCC(=O)N2CCOCC2)s1 [BAA-078]	WEE1 (Homo sapiens)	> 11 µM
Cc1cn(CC(=O)N2CCCC2)nc1Nc1ncc(C(=O)Nc2c(C)ccc(O)c2C)s1 [BAA-208]	WEE1 (Homo sapiens)	1 to 11 µM

Form: item Cc1ccc(O)c(C)c1NC(=O)c1cnc(NCC2CCN(C(=O)Cc3ccc(Cl)cc3)CC2)s1 [BAA-214] ; test system WEE1 (Homo sapiens); IC50: > 11 µM

Cc1cn(CC(=O)O)nc1Nc1ncc(C(=O)Nc2c(C)ccc(O)c2C)s1 [BAA-125] on WEE1 (Homo sapiens) gives IC50 = > 11 µM

Observed IC50, WEE1 (Homo sapiens), Cc1ccc(O)c(C)c1NC(=O)c1cnc(Nc2ccn([C@@H]3CCN(C)C3)n2)s1 [BAA-116] : 1 to 11 µM

Result for Cc1cc(Nc2ncc(C(=O)Nc3c(C)ccc(O)c3C)s2)nc(N2CCC(F)(F)CC2)n1 [BAA-313] , tested on WEE1 (Homo sapiens), IC50: > 11 µM

Let me check: Cc1ccc(O)c(C)c1NC(=O)c1cnc(Nc2ccc(C#N)c(F)c2)s1 [BAA-283] , system WEE1 (Homo sapiens), measured IC50 is > 11 µM

The compound Cc1ccc(O)c(C)c1NC(=O)c1cnc(Nc2ccn(CC(=O)N3CC4C(C3)C4(F)F)n2)s1 (stereo not drawn) [BAA-194] , tested on WEE1 (Homo sapiens), showed IC50 of > 11 µM

Item Cc1ccc(O)c(C)c1NC(=O)c1cnc(Nc2ccn(CC(=O)NC(C)(C)CO)n2)s1 [BAA-138] was tested on WEE1 (Homo sapiens); the reported IC50 is > 11 µM

# lookup: Cc1ccc(O)c(C)c1NC(=O)c1cnc(Nc2cc(-c3ccc(F)cc3)ccn2)s1 [BAA-294] on WEE1 (Homo sapiens), IC50 = > 11 µM

Item Cc1ccc(O)c(C)c1NC(=O)c1cnc(NCCCN2CCOCC2)s1 [BAA-065] ; assay system WEE1 (Homo sapiens); IC50 reported as > 11 µM

Record for Cc1ccc(O)c(C)c1NC(=O)c1cnc(Nc2ccn(CC(=O)N3CCC(F)(F)C3)n2)s1 [BAA-176] under target or system WEE1 (Homo sapiens): IC50 reported as > 11 µM

Taken from patent US20260297042A1.
